- PROCEDURE_DETAILS: Cell-based transwell assay with MDCK-low efflux monolayers (passive permeability)
- Assay type: in vitro ADME
- EXPERIMENTAL_CONTEXT: dog; MDCK-LE monolayers
Starred links: 1 amine or outer side, 2 acyl side, 3 side chain; linkers in the order of their positions; H or OH if unused. Positions of bridges follow the written chain, without caps; N, C: chain ends. Non-standard residues stand in square brackets, D forms with d. Residues, ends and D or L forms follow the SMILES beside them. *: point of attachment. Leu(3R-OH,Nα-propionyl) = CCC(=O)N[C@H](C(=O)*)[C@H](O)C(C)C; X1 = CC(C)[C@@H](O[*:3])[C@H](N[*:1])C(=O)[*:2]; NMeT = CN[C@H](C(=O)O)[C@@H](C)O; dPhLac = O=C(O)[C@H](O)Cc1ccccc1; NMeA = CN[C@@H](C)C(=O)O; NMeDha = C=C(NC)C(=O)O
EXPERIMENTAL_READOUT: recovery (%)

MOLECULE: C=C1C(=O)N[C@@H](C)C(=O)N(C)[C@@H](C)C(=O)N[C@@H]([C@H](OC(=O)[C@@H](NC(=O)CC)[C@H](O)C(C)C)C(C)C)C(=O)N(C)[C@@H]([C@@H](C)OC)C(=O)O[C@H](C(C)C)[C@H](NC(C)=O)C(=O)O[C@H](Cc2ccccc2)C(=O)N1C [Compound (A1), FR900359] (Ac-[X1][dPhLac][NMeDha]A[NMeA][X1](Leu(3R-OH,Nα-propionyl))[NMeT](Me); ester 1-C)
EXPERIMENTAL_READOUT: recovery
QUANTITY_UNIT: %
REPORTED_VALUE: 65
